EC50: recorded values
# Assayed system: rat mGluR5 (Rattus norvegicus)
# Construct: expressed in transfected cells; host or cells: HEK (human embryonic kidney) cells
# Assay method text: Potentiation of glutamate response in HEK cells transfected with rat mGluR5 (Ca2+ fluorescence, FDSS)
# Type: cell-based
# Experimental context: HEK cells transfected with rat mGluR5; read-out: rmGlu5 PAM EC50

Lookup: EC50 / rat mGluR5 (Rattus norvegicus) / CC(C)CCNC(=O)c1ccc(COc2ccccc2)nc1
0.966 µM

###

# Assayed system: rat mGluR5 (Rattus norvegicus)
# Construct: expressed in transfected cells; host or cells: HEK (human embryonic kidney) cells
# Assay method text: Potentiation of glutamate response in HEK cells transfected with rat mGluR5 (Ca2+ fluorescence, FDSS)
# Format: cell-based
# Experimental context: HEK cells transfected with rat mGluR5; read-out: rmGlu5 PAM EC50
pEC50: −log10 of the molar value.
Reported property: pEC50

Worked cases, pEC50 given:
INSERT INTO results (molecule, assayed_system, obs_value) VALUES
  ('C[C@@H](NC(=O)c1ccc(COc2ccccn2)nc1)C1CCCCC1', 'rat mGluR5 (Rattus norvegicus)', '< 5.00'),
  ('CC(C)NC(=O)c1ccc(COc2cc(F)cc(C#N)c2)nc1', 'rat mGluR5 (Rattus norvegicus)', '< 5.00'),
  ('O=C(Nc1nncs1)c1ccc(COc2ccccc2)nc1', 'rat mGluR5 (Rattus norvegicus)', '< 5.00'),
  ('COCCNC(=O)c1ccc(COc2ccccc2)nc1', 'rat mGluR5 (Rattus norvegicus)', '< 5.00'),
  ('O=C(NCc1ccccn1)c1ccc(COc2ccccc2)nc1', 'rat mGluR5 (Rattus norvegicus)', '< 5.00'),
  ('COCC(C)NC(=O)c1ccc(COc2cccc(F)c2)nc1 (centres unmarked)', 'rat mGluR5 (Rattus norvegicus)', '< 5.00'),
  ('CN(C)CCCNC(=O)c1ccc(COc2ccccc2)nc1', 'rat mGluR5 (Rattus norvegicus)', '< 5.00'),
  ('C[C@H](NC(=O)c1ccc(COc2cc(F)cc(F)c2)nc1)C1CCCCC1 [drawing 149]', 'rat mGluR5 (Rattus norvegicus)', '< 5.00');

Lookup: pEC50 / rat mGluR5 (Rattus norvegicus) / CC(C)NC(=O)c1ccc(COc2cccc(F)c2)nc1
< 5.00

Lookup: pEC50 / rat mGluR5 (Rattus norvegicus) / O=C(Nc1cccc(C(F)(F)F)c1)c1ccc(COc2ccccc2)nc1
< 5.00

Lookup: pEC50 / rat mGluR5 (Rattus norvegicus) / O=C(NCCN1CCOCC1)c1ccc(COc2ccccc2)nc1
< 5.00

Lookup: pEC50 / rat mGluR5 (Rattus norvegicus) / O=C(NC1CCCCC1)c1ccc(COc2cc(F)cc(F)c2)nc1
< 5.00

Lookup: pEC50 / rat mGluR5 (Rattus norvegicus) / C[C@@H](NC(=O)c1ccc(COc2ccccc2Cl)nc1)C1CCCCC1
< 5.00

###

# Assayed system: rat mGluR5 (Rattus norvegicus, UniProt P31424)
# Construct: expressed in transfected cells; host or cells: HEK (human embryonic kidney) cells
# Sequence (P31424 21-1203): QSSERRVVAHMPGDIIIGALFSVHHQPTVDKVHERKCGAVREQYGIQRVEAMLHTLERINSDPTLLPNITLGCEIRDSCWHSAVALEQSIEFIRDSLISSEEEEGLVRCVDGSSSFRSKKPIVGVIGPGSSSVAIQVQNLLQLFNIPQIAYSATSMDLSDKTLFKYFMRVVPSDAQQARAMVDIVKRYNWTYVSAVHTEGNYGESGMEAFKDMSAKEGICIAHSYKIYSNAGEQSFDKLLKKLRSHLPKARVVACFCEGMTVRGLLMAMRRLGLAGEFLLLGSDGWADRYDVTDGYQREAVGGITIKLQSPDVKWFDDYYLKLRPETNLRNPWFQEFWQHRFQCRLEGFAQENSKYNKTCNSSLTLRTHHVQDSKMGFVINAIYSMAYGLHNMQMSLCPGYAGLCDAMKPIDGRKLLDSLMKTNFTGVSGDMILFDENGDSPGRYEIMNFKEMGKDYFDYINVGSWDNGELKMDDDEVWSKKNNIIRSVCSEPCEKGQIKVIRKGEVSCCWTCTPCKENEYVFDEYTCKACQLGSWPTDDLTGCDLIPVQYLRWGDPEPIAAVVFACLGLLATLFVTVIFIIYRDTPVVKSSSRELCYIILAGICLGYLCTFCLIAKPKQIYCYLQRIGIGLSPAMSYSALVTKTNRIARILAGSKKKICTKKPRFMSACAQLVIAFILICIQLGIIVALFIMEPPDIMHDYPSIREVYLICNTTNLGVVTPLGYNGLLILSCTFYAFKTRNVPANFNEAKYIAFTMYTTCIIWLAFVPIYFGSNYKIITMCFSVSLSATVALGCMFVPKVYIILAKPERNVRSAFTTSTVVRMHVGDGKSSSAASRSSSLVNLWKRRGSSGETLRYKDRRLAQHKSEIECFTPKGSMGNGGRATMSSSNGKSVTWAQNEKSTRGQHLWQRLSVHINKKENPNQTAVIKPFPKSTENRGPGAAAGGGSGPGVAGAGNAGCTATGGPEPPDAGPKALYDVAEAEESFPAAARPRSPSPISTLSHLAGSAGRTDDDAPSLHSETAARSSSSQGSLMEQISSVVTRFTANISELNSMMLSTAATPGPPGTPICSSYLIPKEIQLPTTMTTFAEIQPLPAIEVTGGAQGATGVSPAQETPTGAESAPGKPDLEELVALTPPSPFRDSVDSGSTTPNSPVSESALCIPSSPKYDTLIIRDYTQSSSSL
# Assay method text: Potentiation of glutamate response in HEK cells transfected with rat mGluR5 (Ca2+ fluorescence, FDSS)
# Type: cell-based
# Experimental context: HEK cells transfected with rat mGluR5; read-out: rmGlu5 PAM EC50
Reported property: pEC50
By convention, pEC50 is the negative base-10 log of a molar concentration.

INSERT INTO assay_data (compound, assayed_system, reported_property, obs_value) VALUES
  ('C[C@@H](NC(=O)c1ccc(COc2ccncc2)nc1)C1CCCCC1', 'rat mGluR5 (Rattus norvegicus, UniProt P31424)', 'pEC50', 5.59),
  ('O=C(NC1CCC1)c1ccc(COc2cccc(F)c2)nc1', 'rat mGluR5 (Rattus norvegicus, UniProt P31424)', 'pEC50', 5.46),
  ('O=C(NC1CC2CCC1C2)c1ccc(COc2cccc(F)c2)nc1 (stereo not shown)', 'rat mGluR5 (Rattus norvegicus, UniProt P31424)', 'pEC50', 7.12),
  ('O=C(NC1CC2CCC1C2)c1ccc(COc2ccccc2)nc1 (stereo not shown) [drawing 66]', 'rat mGluR5 (Rattus norvegicus, UniProt P31424)', 'pEC50', 6.92),
  ('CC(NC(=O)c1ccc(COc2ccccc2)nc1)C1CCCCC1 (stereo not shown)', 'rat mGluR5 (Rattus norvegicus, UniProt P31424)', 'pEC50', 6.73),
  ('COc1ccccc1OCc1ccc(C(=O)N[C@H](C)C2CCCCC2)cn1', 'rat mGluR5 (Rattus norvegicus, UniProt P31424)', 'pEC50', 5.47);

Recorded pEC50 for O=C(Nc1ccccc1F)c1ccc(COc2ccccc2)nc1 , please?
6.30

Recorded pEC50 for C[C@@H](NC(=O)c1ccc(COc2cccc(F)c2)nc1)C(C)(C)C [drawing 65] , please?
7.09

Recorded pEC50 for C[C@@H](NC(=O)c1ccc(COc2cccnc2)nc1)C1CCCCC1 [drawing 107] , please?
5.35

Recorded pEC50 for CC[C@@H](C)NC(=O)c1ccc(COc2cccc(F)c2)nc1 , please?
5.48

Recorded pEC50 for C[C@@H](NC(=O)c1ccc(COc2cccc(F)c2)nc1)C1CCOCC1 , please?
5.49

Recorded pEC50 for O=C(Nc1ccc(F)cc1F)c1ccc(COc2ccccc2)nc1 , please?
6.30

Recorded pEC50 for C[C@@H](NC(=O)c1ccc(COc2cccc(Cl)c2)nc1)C1CCCCC1 , please?
6.68
